Data origin: the supplement of paper PMC9112550

Tested on: Escherichia coli TOP10
experiment: shrunken log2 fold change of peptide-encoding DNA abundance (4.5 h post-induction vs induction); higher = less antimicrobial activity (less host growth inhibition)
condition-set: time post-induction: 4.5 h; library: site-saturation at positions 5, 18, 19, 20
Decision: shrunken log2 fold change compared against -0.2; not below it gives 1 (yes), below it gives 0 (no).

**Q:** Evaluate `RRIRNRPPRLPRPRPRPDEMPRP` : shrunken log2 fold change at minimum -0.2?
**A:** 1 (yes)

**Q:** Continue with `RRIRIRPPRLPRPRPRPRNMPRP`
**A:** 0 (no)

**Q:** Continue with `RRIRHRPPRLPRPRPRPNKNPRP`
**A:** 0 (no)

**Q:** Continue with `RRIRVRPPRLPRPRPRPNHIPRP`
**A:** 0 (no)

**Q:** Continue with `RRIRFRPPRLPRPRPRPHYPPRP`
**A:** 1 (yes)

**Q:** Continue with `RRIRYRPPRLPRPRPRPRVMPRP`
**A:** 1 (yes)

**Q:** Continue with `RRIRLRPPRLPRPRPRPCDEPRP`
**A:** 1 (yes)

**Q:** Continue with `RRIRPRPPRLPRPRPRPEQDPRP`
**A:** 1 (yes)

**Q:** Continue with `RRIRQRPPRLPRPRPRPSYIPRP`
**A:** 0 (no)

**Q:** Continue with `RRIRDRPPRLPRPRPRPSVYPRP`
**A:** 0 (no)

**Q:** Continue with `RRIRKRPPRLPRPRPRPDGAPRP`
**A:** 1 (yes)

**Q:** Continue with `RRIRDRPPRLPRPRPRPPCIPRP`
**A:** 0 (no)

**Q:** Continue with `RRIRHRPPRLPRPRPRPFSQPRP`
**A:** 0 (no)

---

System: Escherichia coli TOP10;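 note: peptides expressed intracellularly from a pBAD plasmid library in pooled LB shake-flask culture, induced with 0.3% L-arabinose, DNA abundance read by NGS, three biological replicates, DESeq2 with apeglm shrinkage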
experiment: shrunken log2 fold change of peptide-encoding DNA abundance (4.5 h post-induction vs induction); higher = less antimicrobial activity (less host growth inhibition)
condition-set: time post-induction: 4.5 h; library: site-saturation at positions 5, 18, 19, 20
property-measured: shrunken log2 fold change
Could you keep your reply to the number by itself?

**Q:** Hello, I am looking for reported shrunken log2 fold change with Escherichia coli TOP10 for `RRIRCRPPRLPRPRPRPTFAPRP` . Could you help?
**A:** 0.359

**Q:** Continue with `RRIRFRPPRLPRPRPRPIDIPRP`
**A:** 0.0578

**Q:** Continue with `RRIRLRPPRLPRPRPRPMSWPRP`
**A:** 0.0708

**Q:** Continue with `RRIRWRPPRLPRPRPRPTFAPRP`
**A:** 0.327

**Q:** Continue with `RRIRARPPRLPRPRPRPVYIPRP`
**A:** -0.355

**Q:** Continue with `RRIRKRPPRLPRPRPRPFSTPRP`
**A:** -0.187

**Q:** Continue with `RRIRVRPPRLPRPRPRPHQEPRP`
**A:** 0.113

**Q:** Continue with `RRIRYRPPRLPRPRPRPCFEPRP`
**A:** -0.614

**Q:** Continue with `RRIRERPPRLPRPRPRPSEMPRP`
**A:** -0.16

**Q:** Continue with `RRIRKRPPRLPRPRPRPTFSPRP`
**A:** 0.148

**Q:** Continue with `RRIRQRPPRLPRPRPRPTDSPRP`
**A:** -0.0401

**Q:** Continue with `RRIRSRPPRLPRPRPRPQEIPRP`
**A:** -0.16

**Q:** Continue with `RRIRMRPPRLPRPRPRPERAPRP`
**A:** 2.76

**Q:** Continue with `RRIRCRPPRLPRPRPRPDMKPRP`
**A:** -0.996

**Q:** Continue with `RRIRTRPPRLPRPRPRPATIPRP`
**A:** -0.0446

**Q:** Continue with `RRIRGRPPRLPRPRPRPKSGPRP`
**A:** 0.707

**Q:** Continue with `RRIRVRPPRLPRPRPRPRVCPRP`
**A:** 0.165

**Q:** Continue with `RRIRLRPPRLPRPRPRPILWPRP`
**A:** -0.0294

**Q:** Continue with `RRIRHRPPRLPRPRPRPTARPRP`
**A:** 0.156

**Q:** Continue with `RRIRGRPPRLPRPRPRPCTCPRP`
**A:** 0.111

**Q:** Continue with `RRIRQRPPRLPRPRPRPLFKPRP`
**A:** -0.387

**Q:** Continue with `RRIRERPPRLPRPRPRPVGFPRP`
**A:** 0.0681

**Q:** Continue with `RRIRNRPPRLPRPRPRPYRKPRP`
**A:** -0.0658

**Q:** Continue with `RRIRVRPPRLPRPRPRPGMLPRP`
**A:** -0.333

**Q:** Continue with `RRIRLRPPRLPRPRPRPCYAPRP`
**A:** -0.0464

**Q:** Continue with `RRIRIRPPRLPRPRPRPSNWPRP`
**A:** -0.257

**Q:** Continue with `RRIRGRPPRLPRPRPRPEQVPRP`
**A:** 0.995

**Q:** Continue with `RRIRDRPPRLPRPRPRPAVCPRP`
**A:** 1.19

**Q:** Continue with `RRIRKRPPRLPRPRPRPVQPPRP`
**A:** 0.0838

**Q:** Continue with `RRIRRRPPRLPRPRPRPKMSPRP`
**A:** 0.274

**Q:** Continue with `RRIRYRPPRLPRPRPRPRFKPRP`
**A:** -0.302

**Q:** Continue with `RRIRLRPPRLPRPRPRPVWSPRP`
**A:** 0.0624

**Q:** Continue with `RRIRVRPPRLPRPRPRPVVQPRP`
**A:** -0.039

**Q:** Continue with `RRIRIRPPRLPRPRPRPTRHPRP`
**A:** 0.0172

**Q:** Continue with `RRIRFRPPRLPRPRPRPHNNPRP`
**A:** -0.638

**Q:** Continue with `RRIRERPPRLPRPRPRPHNLPRP`
**A:** -0.47

**Q:** Continue with `RRIRWRPPRLPRPRPRPKYNPRP`
**A:** -0.558

**Q:** Continue with `RRIRLRPPRLPRPRPRPFMSPRP`
**A:** -1.39

**Q:** Continue with `RRIRCRPPRLPRPRPRPQRSPRP`
**A:** 2.66

**Q:** Continue with `RRIRPRPPRLPRPRPRPWTSPRP`
**A:** -0.0224

**Q:** Continue with `RRIRKRPPRLPRPRPRPDCGPRP`
**A:** 0.016

**Q:** Continue with `RRIRTRPPRLPRPRPRPFVIPRP`
**A:** -0.488

**Q:** Continue with `RRIRWRPPRLPRPRPRPAVRPRP`
**A:** -0.0873
